Would you mind telling me the reported IC50 of each entry?
Molecular target: human recombinant HDAC6 (Homo sapiens)
Construct: purchased Calbiochem Inc. 382180
Assay: HDAC6 enzyme activity inhibition (HDAC Fluorimetric Drug Discovery Kit)
Type: biochemical
Settings: human recombinant HDAC6; IC50 calculated with GraphPad Prism
Report as a plain number; the unit nM is understood.

Lab entry: human recombinant HDAC6 (Homo sapiens) assay, compound `FC(F)c1nnc(-c2ccc(Cn3cc(C4(F)CCN(C5COC5)CC4)nn3)nc2)o1` , IC50 = 122

Lab entry: human recombinant HDAC6 (Homo sapiens) assay, compound `CN(C)C(C)(C)C(=O)Nc1cccc(-c2cn(Cc3ccc(-c4nnc(C(F)F)o4)cc3F)nn2)c1` , IC50 = 41.6

Lab entry: human recombinant HDAC6 (Homo sapiens) assay, compound `Cc1ccc(-c2cn(Cc3ccc(-c4nnc(C(F)F)o4)cn3)nn2)cn1` , IC50 = 35.1

Lab entry: human recombinant HDAC6 (Homo sapiens) assay, compound `CC(C)N1CCN(Cc2ccc(-c3cn(Cc4ccc(-c5nnc(C(F)F)o5)cc4F)nn3)cc2)CC1` , IC50 = 39.4

###

Biological target: human recombinant HDAC6 (Homo sapiens, UniProt Q9UBN7)
Construct: purchased Calbiochem Inc. 382180
Sequence (Q9UBN7 1-1215): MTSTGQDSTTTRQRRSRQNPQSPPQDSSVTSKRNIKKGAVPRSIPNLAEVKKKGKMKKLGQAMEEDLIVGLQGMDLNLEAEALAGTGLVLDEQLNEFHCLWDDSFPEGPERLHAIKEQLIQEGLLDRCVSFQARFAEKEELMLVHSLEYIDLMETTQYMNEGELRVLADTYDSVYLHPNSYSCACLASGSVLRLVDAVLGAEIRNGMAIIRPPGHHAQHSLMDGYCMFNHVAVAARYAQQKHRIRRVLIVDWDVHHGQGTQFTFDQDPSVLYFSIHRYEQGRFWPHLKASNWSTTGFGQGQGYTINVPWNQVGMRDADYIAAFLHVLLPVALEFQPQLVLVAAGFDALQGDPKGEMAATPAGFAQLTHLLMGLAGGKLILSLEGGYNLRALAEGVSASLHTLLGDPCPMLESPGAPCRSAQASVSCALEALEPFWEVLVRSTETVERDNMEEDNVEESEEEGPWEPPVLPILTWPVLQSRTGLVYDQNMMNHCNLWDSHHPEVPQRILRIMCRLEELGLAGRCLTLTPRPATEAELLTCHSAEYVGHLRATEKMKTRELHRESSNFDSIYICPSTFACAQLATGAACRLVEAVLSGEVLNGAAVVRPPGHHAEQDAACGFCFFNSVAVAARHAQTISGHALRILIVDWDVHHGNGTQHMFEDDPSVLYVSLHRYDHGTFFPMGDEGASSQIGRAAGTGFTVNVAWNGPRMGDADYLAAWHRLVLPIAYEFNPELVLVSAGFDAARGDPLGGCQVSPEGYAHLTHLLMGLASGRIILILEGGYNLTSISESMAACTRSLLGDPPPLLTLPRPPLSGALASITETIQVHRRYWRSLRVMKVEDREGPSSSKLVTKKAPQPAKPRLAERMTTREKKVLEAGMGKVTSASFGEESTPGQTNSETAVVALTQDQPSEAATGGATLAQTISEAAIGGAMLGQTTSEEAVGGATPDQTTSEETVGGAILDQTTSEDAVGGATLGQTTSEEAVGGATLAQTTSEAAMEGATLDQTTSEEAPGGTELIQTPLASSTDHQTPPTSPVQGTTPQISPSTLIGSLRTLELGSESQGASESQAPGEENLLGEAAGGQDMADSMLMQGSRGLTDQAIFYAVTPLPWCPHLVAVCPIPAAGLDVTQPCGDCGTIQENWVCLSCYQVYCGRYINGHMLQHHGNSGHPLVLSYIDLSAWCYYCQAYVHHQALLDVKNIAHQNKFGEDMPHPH
Assay: HDAC6 enzyme activity inhibition (HDAC Fluorimetric Drug Discovery Kit)
Assay type: biochemical
Details: HDAC6 over HDAC1
Would you mind telling me the reported HDAC6 selectivity (fold) of each entry?
Report as a plain number; the unit fold is understood.

Lab entry: human recombinant HDAC6 (Homo sapiens, UniProt Q9UBN7) assay, compound `Fc1cc(-c2nnc(C(F)F)o2)ccc1Cn1cc(-c2cccc(N3CCN(C4CCC4)CC3)c2F)nn1` , HDAC6 selectivity (fold) = 1256

Lab entry: human recombinant HDAC6 (Homo sapiens, UniProt Q9UBN7) assay, compound `CN(C)Cc1cccc(-c2cn(Cc3ncc(-c4nnc(C(F)F)o4)cc3F)nn2)c1Cl` , HDAC6 selectivity (fold) = 639

Lab entry: human recombinant HDAC6 (Homo sapiens, UniProt Q9UBN7) assay, compound `Fc1cc(-c2nnc(C(F)F)o2)ccc1Cn1cc(-c2cccc(Br)n2)nn1` , HDAC6 selectivity (fold) = 1126

Lab entry: human recombinant HDAC6 (Homo sapiens, UniProt Q9UBN7) assay, compound `FC(F)c1nnc(-c2ccc(Cn3cc(-c4ccc(CNC5CCC5)cc4)nn3)cc2)o1` , HDAC6 selectivity (fold) = 2100

Lab entry: human recombinant HDAC6 (Homo sapiens, UniProt Q9UBN7) assay, compound `FC(F)c1nnc(-c2ccc(Cn3cc(-c4ccc(CN5CCC5)cc4)nn3)cc2)o1` , HDAC6 selectivity (fold) = 4545

Lab entry: human recombinant HDAC6 (Homo sapiens, UniProt Q9UBN7) assay, compound `Fc1cc(-c2nnc(C(F)F)o2)ccc1Cn1cc(-c2cncs2)nn1` , HDAC6 selectivity (fold) = 588

###

Would you mind telling me the reported IC50 of each entry?
Target: human recombinant HDAC6 (Homo sapiens)
Construct: purchased Calbiochem Inc. 382180
Experiment: HDAC6 enzyme activity inhibition (HDAC Fluorimetric Drug Discovery Kit)
Format: biochemical
Settings: human recombinant HDAC6; IC50 calculated with GraphPad Prism
Report as a plain number; the unit nM is understood.

Value of measured IC50 for the entry Fc1cc(-c2nnc(C(F)F)o2)ccc1Cn1cc(-c2cccc3cc[nH]c23)nn1 [Compound 4082] : 143

Value of measured IC50 for the entry FC(F)c1nnc(-c2ccc(Cn3cc([C@@H]4CCCN4C4COC4)nn3)nc2)o1 [Compound 4026] : 263

Value of measured IC50 for the entry CC(C)N1CCN(Cc2cccc(-c3cn(Cc4ccc(-c5nnc(C(F)F)o5)cc4F)nn3)c2)CC1 [Compound 4408] : 51.5

Value of measured IC50 for the entry Fc1cc(-c2nnc(C(F)F)o2)ccc1Cn1cc(-c2ccc(CN3CCC(F)(F)CC3)cc2)nn1 [Compound 4472] : 123

Value of measured IC50 for the entry CC(C)(F)C(=O)N1CCC(c2cn(Cc3ccc(-c4nnc(C(F)F)o4)cn3)nn2)CC1 [Compound 3894] : 100

Value of measured IC50 for the entry CN1CCN(Cc2cccc(-c3cn(Cc4ccc(-c5nnc(C(F)F)o5)cc4F)nn3)c2)CC1 [Compound 4406] : 56

Value of measured IC50 for the entry FC(F)c1nnc(-c2ccc(Cn3cc(-c4cccc(NC5CCCCC5)c4)nn3)cc2)o1 [Compound 4324] : 294

Value of measured IC50 for the entry CCC(=O)N1CCN(c2cccc(-c3cn(Cc4ccc(-c5nnc(C(F)F)o5)cn4)nn3)c2)CC1 [Compound 3991] : 28.2

Value of measured IC50 for the entry FC(F)c1nnc(-c2ccc(Cn3cc(-c4cccc(CN5CC(F)(F)C5)c4)nn3)cc2)o1 [Compound 4417] : 102

Value of measured IC50 for the entry FC(F)c1nnc(-c2ccc(Cn3cc(-c4cc(C(F)(F)F)cc(C(F)(F)F)c4)nn3)cc2)o1 [Compound 3695] : 1190

Value of measured IC50 for the entry CC(C)(C)OC(=O)N1CCC(c2cn(Cc3ccc(-c4nnc(C(F)F)o4)cn3)nn2)C1 (stereo not drawn) [Compound 3820] : 170

Value of measured IC50 for the entry FC1CN(Cc2cccc(-c3cn(Cc4ccc(-c5nnc(C(F)F)o5)cn4)nn3)c2)C1 [Compound 3964] : 26.2

###

Biological target: human recombinant HDAC6 (Homo sapiens, UniProt Q9UBN7)
Construct: purchased Calbiochem Inc. 382180
Assay: HDAC6 enzyme activity inhibition (HDAC Fluorimetric Drug Discovery Kit)
Type: biochemical
Settings: human recombinant HDAC6; IC50 calculated with GraphPad Prism
Endpoint label: log10 IC50 (log10 of the value in nM)
Base-10 log of IC50, unit nM.

Value of measured log10 IC50 for the entry `CCCN1CCC(Nc2ccc(F)c(-c3cn(Cc4ccc(-c5nnc(C(F)F)o5)cc4F)nn3)c2)CC1` : 1.73

Value of measured log10 IC50 for the entry `COC(=O)N1CCC[C@H]1c1cn(Cc2ccc(-c3nnc(C(F)F)o3)cn2)nn1` : 2.32

Value of measured log10 IC50 for the entry `CC(=O)N1CCN(c2cccc(-c3cn(Cc4ccc(-c5nnc(C(F)F)o5)cn4)nn3)c2)CC1` : 1.28

Value of measured log10 IC50 for the entry `Fc1cc(-c2nnc(C(F)F)o2)ccc1Cn1cc(-c2cccc(CN3CCC(F)(F)CC3)c2)nn1` : 1.80

Value of measured log10 IC50 for the entry `Fc1cc(-c2nnc(C(F)F)o2)ccc1Cn1cc(-c2ccc3c(c2)CCN(C2COC2)C3)nn1` : 1.82

Value of measured log10 IC50 for the entry `CC(C)N1CCC(c2cccc(-c3cn(Cc4ccc(-c5nnc(C(F)F)o5)cn4)nn3)c2)CC1` : 1.33

Value of measured log10 IC50 for the entry `FC(F)c1nnc(-c2ccc(Cn3cc(-c4cccc(NC5CCCCC5)c4)nn3)nc2)o1` : 1.62

Value of measured log10 IC50 for the entry `CN1CCN(c2cccc(-c3cn(Cc4ccc(-c5nnc(C(F)F)o5)cc4F)nn3)c2)CC1` : 1.38
